// reported pKi for each item listed
Biological target: neuronal nicotinic cholinergic channel receptors
Test: [3H]-cytisine displacement binding to neuronal nicotinic cholinergic channel receptors
Format: rat (crude synaptic membranes from whole rat brain)
Details: Table 2; [3H]-cytisine 1.25 nM, 60 min at 4° C.; read-out: Receptor Binding Ki
Method: B. Protocol For Determination of Nicotinic Cholinergic Channel Receptor Binding Potencies of Ligands Binding of [^3 H]-cytisine ([^3 H]-CYT) to nicotinic receptors was accomplished using crude synaptic membrane preparations from whole rat brain (Pabreza et al., Molecular Pharmaol., 1990, 39:9). Washed membranes were stored at -80° C. prior to use. […] The filters are counted in 4 mL of Ecolume® (ICN). […] Alternately, data were expressed as a percentage of the total specific binding.
Counter-ions that a name gives are not always drawn.
FYI, pKi means -log10 of a concentration in mol per litre.

| compound | pKi |
| --- | --- |
| CN1CC[C@H]1COc1ccc(Cl)nc1 [Example 86, hydrochloride] | 8.84 |
| FC(F)(F)c1cncc(OC[C@H]2CCCN2)c1 [Example 69, dihydrochloride] | 8.68 |
| Cc1ccncc1OC[C@@H]1CCN1 [Example 64, dihydrochloride] | 6.65 |
| CN1CCC[C@H]1COc1ccc(CO)nc1 [Example 88, dihydrochloride] | 7.98 |
| CCCCc1cncc(OC[C@@H]2CCCN2C)c1 [Example 71, dihydrochloride] | 10.00 |
| O[C@H]1CN[C@H](COc2cccnc2)C1 [Example 72, dihydrochloride] | 6.96 |

Which value of pKi has been reported for Clc1ncccc1OC[C@@H]1CCCN1 [Example 43, dihydrochloride] in the records? 7.73

Which value of pKi has been reported for c1ccc2ncc(OC[C@H]3CCCN3)cc2c1 [Example 76, dihydrochloride] in the records? 7.89

Which value of pKi has been reported for CN1C[C@H](OS(C)(=O)=O)C[C@H]1COc1cccnc1 [Example 87, dihydrochloride] in the records? 9.96
